- studySystem: human PAR-2 (hPAR-2) receptor (Homo sapiens)
- Construct: endogenous in cells
- Sequence (P55085 26-397): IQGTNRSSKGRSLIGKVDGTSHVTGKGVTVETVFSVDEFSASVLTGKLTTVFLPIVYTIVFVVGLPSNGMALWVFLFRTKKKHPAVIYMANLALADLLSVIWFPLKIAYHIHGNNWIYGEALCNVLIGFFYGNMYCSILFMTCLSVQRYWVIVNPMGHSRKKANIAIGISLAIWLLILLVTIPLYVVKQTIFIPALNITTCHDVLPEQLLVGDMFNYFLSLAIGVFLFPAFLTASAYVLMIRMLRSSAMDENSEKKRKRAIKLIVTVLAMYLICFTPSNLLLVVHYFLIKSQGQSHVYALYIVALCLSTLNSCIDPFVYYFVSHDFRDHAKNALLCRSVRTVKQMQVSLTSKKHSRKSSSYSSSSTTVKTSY
- assayComment: In vitro human PAR-2 functional antagonist activity using calcium assays
- statedConditions: hPAR-2 endogenously expressed in HEK-293 cells; stimulated by 2-Furoyl-LIGRLO-NH2 peptide; Fluo4AM intracellular calcium, FLIPR Tetra
readoutType: IC50

1) Cc1cc(N2CCN(C(=O)c3cnc4c(n3)C(C)(C)CN4c3ccc(C(F)(F)F)c(Cl)c3)C(C)(C)C2)nc(C)c1C(=O)O | < 500 nM
2) Cc1cc(N2CCN(C(=O)c3cnc4c(n3)C3(CN4c4cc(F)c(F)c(F)c4)CC(C)(C)C3)C(C)(C)C2)nc(C)c1C(=O)O | < 500 nM
3) CC1(C)CN(c2ccc(Cl)c(F)c2)c2ccc(C(=O)N3CCN(c4nc(C(N)=O)cs4)CC3(C)C)nc21 | < 500 nM
4) CO[C@@H]1CN(C(=O)c2ccc3c(n2)C(C)(C)CN3c2ccc(Cl)c(F)c2)CC[C@H]1CC(=O)O | 500 to 10000 nM
5) CC1(C)CN(c2ccc(Cl)c(F)c2)Cc2sc(C(=O)N3CCN(c4ccc(CC(=O)O)cn4)CC3(C)C)nc21 | 500 to 10000 nM
